Here, each record is paired with measured IC50 data.
test system: LNCaP; test: Induction of cell death in human LNCaP cells incubated for 72 hrs by MTT assay; type: functional, cell-based

* CCc1noc(C)c1COc1cccc(C(=O)NNC(=O)c2ccc3ccccc3n2)c1 | 430 nM

Input Cc1noc(C)c1COc1cccc(C(=O)NNC(=O)c2ccc3ccccc3n2)c1 . Output IC50: 1660 nM

* * *

biological target: PRMT5/MEP50 complex (Homo sapiens) (UniProt O14744+Q9BQA1); assay: Inhibition of PRMT5/MEP50 (unknown origin) protein-protein interaction expressed in COS-1 cells at 10 uM incubated for 18 hrs by BiFC screening analysis relative to control; type: cell-based
quantity-measured: inhibition (%)
Could you give me the number in %? Just the number is fine.

Below: 3 compounds and their reported inhibition.
- CCCCC(=O)Nc1sc2c(c1C(=O)NC1CCS(=O)(=O)C1)CCC(C(C)(C)C)C2 (centres undefined): 24
- CCN(CC)c1ccc(/C=C2\S/C(=N/NC(=O)c3ccc(Cl)cc3Cl)NC2=O)cc1: 24
- c1ccc(-n2cnc3ccccc32)cc1: 24

Attention now shifts to the item below.
Entry under test: Cn1cc(C(=O)NCC2CCN(C(=O)c3nc(-c4ccccc4)n4c3CCCCC4)CC2)cn1 . Its inhibition was 24
